# TARGET OR SYSTEM: WRN [UniPro: Q14191 (WRN_HUMAN), N500-C946] (Homo sapiens (Human), UniProt Q14191)
# Sequence (Q14191 500-946): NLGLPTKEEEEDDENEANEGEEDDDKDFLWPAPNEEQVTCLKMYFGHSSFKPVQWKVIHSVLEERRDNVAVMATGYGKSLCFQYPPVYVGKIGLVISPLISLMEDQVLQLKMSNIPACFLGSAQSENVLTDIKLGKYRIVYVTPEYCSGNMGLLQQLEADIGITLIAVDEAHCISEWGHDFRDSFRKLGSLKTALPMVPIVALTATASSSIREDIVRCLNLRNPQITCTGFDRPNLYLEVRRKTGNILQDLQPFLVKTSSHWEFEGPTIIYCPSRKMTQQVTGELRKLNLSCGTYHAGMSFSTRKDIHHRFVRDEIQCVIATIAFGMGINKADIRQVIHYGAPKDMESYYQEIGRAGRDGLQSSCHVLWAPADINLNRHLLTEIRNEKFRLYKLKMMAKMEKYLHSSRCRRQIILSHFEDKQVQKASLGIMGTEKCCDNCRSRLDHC
# PROCEDURE TEXT: WRN unwinding assay (FORKF DNA, fluorescence)
# Assay type: biochemical
# CONDITION SUMMARY: Table 14
MEASUREMENT TYPE: IC50

Some compounds with known IC50 results, for comparison:
CCc1c(N2CCC(NC(=O)CNC(=O)c3ccccc3)CC2)c(=O)n2nc(C3=CCOCC3)nc2n1CC(=O)Nc1ccc(C(F)(F)F)cc1Cl [Example 141]
> 1000 nM
CCc1c(N2CCN(C(=O)C(=O)Nc3nc(C)cs3)CC2)c(=O)n2nc(C3=CCOCC3)nc2n1CC(=O)Nc1ccc(C(F)(F)F)cc1Cl [Example 347]
< 100 nM
CCc1c(N2CCN(C(=O)CNC(=O)c3cc(F)ccc3F)CC2)c(=O)n2nc(C3=CCOCC3)nc2n1CC(=O)Nc1ccc(C(F)(F)F)cc1Cl [Example 118]
< 100 nM
CCc1c(N2CCN(C(=O)CNC(=O)c3ncco3)CC2)c(=O)n2nc(N3CCCOCC3)nc2n1CC(=O)Nc1ccc(C(F)(F)F)cc1F [Example 257]
100 to 1000 nM
CCc1c(N2CCN(C(=O)CNC(=O)c3ccccc3F)CC2)c(=O)n2nc(C3=CCOCC3)nc2n1CC(=O)Nc1ccc(C(F)(F)F)cc1F [Example 149]
< 100 nM

Here's the next entry for you.
Inquiry: # get_value(readout='IC50', item= CCc1c(N2CCN(C(=O)C(=O)Nc3cc(C)on3)CC2)c(=O)n2nc(N3CCOCC3)nc2n1CC(=O)Nc1ccc(C(F)(F)F)cc1Cl [Example 352] )
Reply text: 100 to 1000 nM

----------
# TARGET OR SYSTEM: WRN [UniPro: Q14191 (WRN_HUMAN), N500-C946] (Homo sapiens (Human), UniProt Q14191)
# PROCEDURE TEXT: WRN ATPase assay (ADP-Glo)
# Assay type: biochemical
# CONDITION SUMMARY: WRN enzymatic activity assay
pIC50: −log10 of the molar value.
MEASUREMENT TYPE: pIC50

Some compounds with known pIC50 results, for comparison:
CCc1c(N2CCN(C(=O)CNC(=O)c3ccc(C(F)(F)F)cc3)CC2)c(=O)n2nc(C3=CCOCC3)nc2n1CC(=O)Nc1ccc(C(F)(F)F)cc1Cl
6.00 to 7.00
CCc1c(N2CCN(C(=O)c3cnc4[nH]cnc4c3O)CC2)c(=O)n2nc(C3=CCOCC3)nc2n1CC(=O)Nc1ccc(C(F)(F)F)cc1Cl
> 7.00
CCc1c(N2CCN(C(=O)c3cc4ccsc4[nH]c3=O)CC2)c(=O)n2nc(C3=CCOCC3)nc2n1CC(=O)Nc1ccc(C(F)(F)F)cc1Cl
> 7.00
CCc1c(N2CCN(C(=O)CNC(=O)N3Cc4ccncc4C3)CC2)c(=O)n2nc(C3=CCOCC3)nc2n1CC(=O)Nc1ccc(C(F)(F)F)cc1Cl
> 7.00
CCc1c(N2CCN(C(=O)C(=O)Nc3cscn3)CC2)c(=O)n2nc(C3=CCOCC3)nc2n1CC(=O)Nc1ccc(C(F)(F)F)cc1Cl
6.00 to 7.00

Inquiry: # get_value(readout='pIC50', item= CCc1c(N2CCN(C(=O)c3cnc4[nH]ncc4c3O)CC2)c(=O)n2nc(C3=CCOCC3)nc2n1CC(=O)Nc1ccc(C(F)(F)F)cc1Cl )
Reply text: > 7.00
